// values below are reported TGI
# Test system: SK-MEL-28 melanoma
# assay_remarks: NCI tumour cell line growth inhibition, 48 h

Take a look at these entries with their results.
                                   compound  value_observed
0  C=CC1=C(C)C2=NC1=CC1=NC(=CC3=C(C)C4=C(O)C(C(=O)OC)C(=C5NC(=C2)C(C)C5CCC(=O)OC)C4=N3)C(CC)=C1C (stereo not drawn)        > 100 µM
1  CSc1nc2c(=O)n(-c3ccccc3)c(=S)n(-c3ccccc3)c2s1        > 100 µM
2  C=CCN(c1cc(OC)c2[nH]cc(C)c2c1[N+](=O)[O-])S(C)(=O)=O        > 100 µM
3  O=c1c2ccccc2nc(-c2cccc(Cl)c2)n1NCC1(O)OCC(O)C(O)C1O (stereo not drawn)        > 100 µM
4  NC(=O)CC(N=C1C(=O)OC(C(O)CO)C1=NC(CC(N)=O)C(=O)O)C(=O)O (stereo not drawn)        > 100 µM

Entry `C=C(C)[C@@H]1CCC2=C[C@H](CC(C)=CC3=CC(C)=C(O3)[C@@H]1OC)OC2=O` , TGI reported as > 100 µM

Entry CCN(CC)CCCC(C)NC(=O)c1ccc2c(c1)C(=O)c1ccccc1C2=O (stereo not drawn) , TGI reported as 29.8 µM

Entry `COc1ccc(Oc2nc(C#CC(C)(C)O)nc(Oc3ccc(OC)cc3)n2)cc1` , TGI reported as 18.9 µM

Entry `O=C1NN(c2ccccc2)C(=O)/C1=C/c1ccc(Br)o1` , TGI reported as 29.8 µM

Entry `COc1ccccc1NC(=O)O/N=C(/Cl)C(C)C` , TGI reported as 27.8 µM

* * *

# Test system: SF-295 CNS
# assay_remarks: NCI tumour cell line growth inhibition, 48 h
// values below are reported GI50

Take a look at these entries with their results.
molecule	GI50
CNCCCNCCCN1C(=O)c2ccc3c4c(ccc(c24)C1=O)C(=O)N(CCCNCc1ccccc1OC)C3=O	0.894 µM
C=C1C[C@@]2(C)C(CC[C@]3(C)C2CC=C2C4CC(C)(C)C[C@@H](OC(=O)/C(C)=C\C)[C@]4(C(=O)O)CC[C@]23C)C(C)(C)C1=O (some centres undefined)	2.95 µM
COc1ccc2c(c1)/C(=N/OC(C)=O)c1c-2c(=O)[nH]c2ccccc12	18.1 µM

Entry `N#Cc1c(N)nc(N2CCOCC2)c(C#N)c1-c1ccccc1Cl` , GI50 reported as 38.5 µM

* * *

// values below are reported TGI
# Tested on: HS 578T breast
# assay_remarks: NCI tumour cell line growth inhibition, 48 h
Quick note: give the figure in µM, leave out the unit.

compound	value_observed
CSc1nc2c(=O)n(-c3ccccc3)c(=S)n(-c3ccccc3)c2s1	94.7

Next compound, TGI to be filled in.
Entry C=C1C[C@@]2(C)C(CC[C@]3(C)C2CC=C2C4CC(C)(C)C[C@@H](OC(=O)/C(C)=C\C)[C@]4(C(=O)O)CC[C@]23C)C(C)(C)C1=O (stereo partly drawn) , TGI reported as 34.4

* * *

// values below are reported TGI
# System: ACHN renal
# assay_remarks: NCI tumour cell line growth inhibition, 48 h

>>> df
                                   molecule  value_observed
0  C=C1C(=O)O[C@H]2[C@H]1CC/C(COC(=O)c1ccccc1)=C\CC[C@@]1(C)O[C@@H]21         2.86 µM
1  CN(C)CCCn1c2nc(=O)[nH]c(=O)c-2nc2cc(Cl)c(Cl)cc21         11.8 µM
2  C[C@]1(O)O[C@@H]2OCC[C@@H]2C2=C1C(=O)c1ccccc1C2=O         31.7 µM
3           COc1ccccc1NC(=O)O/N=C(/Cl)C(C)C         17.4 µM
4  COC1=C(Br)C(=O)C2=C(C1=O)C1C3=C(C(=O)C=CC3=O)C2c2ccccc21 (centres undefined)         34.5 µM
5  C[C@H](N)C(=O)N1C[C@H](CCCB(O)O)[C@](N)(C(=O)O)C1        > 100 µM
6  COc1ccc2c(c1)/C(=C/c1cc(OC)c(OC)c(OC)c1)C(=O)N2C       > 39.5 µM
7  Cc1ccc(S(=O)(=O)NC(=O)NC(Cc2ccc(O)c(O)c2)C(=O)O)cc1 (centres undefined)        > 100 µM

Next molecule, TGI to be filled in.
Entry `Cc1ccc(S(=O)(=O)N2CCNCCN(S(=O)(=O)c3ccc(C)cc3)CCN(S(=O)(=O)c3ccc(C)cc3)CC2)cc1` , TGI reported as > 100 µM

* * *

# Tested on: MDA-MB-231 breast
# assay_remarks: NCI tumour cell line growth inhibition, 48 h
readout_kind: TGI

Take a look at these entries with their results.
molecule	tgt	value_observed
CCCN(CCSSCCNc1nc(N(C)O)nc(N(C)O)n1)c1nc(N(C)O)nc(N(C)O)n1	MDA-MB-231 breast	> 100 µM
CCOC(=O)Cn1c(=O)c2cc(-c3ccccc3)cc3c(Cl)nc4c(OC)c(OC)cc1c4c32	MDA-MB-231 breast	> 100 µM
COc1ccccc1NC(=O)O/N=C(/Cl)C(C)C	MDA-MB-231 breast	18.3 µM
CC[C@@]12C=CC(=S)N(CCSc3ccccc3)[C@@H]1c1c(n(S(=O)(=O)c3ccc(OC)cc3)c3ccccc13)CC2	MDA-MB-231 breast	> 100 µM
COC1=C(Br)C(=O)C2=C(C1=O)C1C3=C(C(=O)C=CC3=O)C2c2ccccc21 (stereo not drawn)	MDA-MB-231 breast	66.1 µM

Entry `CC(C)OC(=O)[C@@H](O)[C@H](CO)C1=CC([Si](C)(C)c2ccccc2)=CON1` , TGI reported as > 100 µM

Entry `CN1CCN(c2ccc(C(=O)Nc3cc(-c4cccc(NS(=O)(=O)c5ccccc5)c4)[nH]n3)cc2)CC1` , TGI reported as 12.2 µM

Entry OCC(O)C(O)C(O)/C=N/Nc1nc2ccccc2nc1-c1ccccc1 (stereo not drawn) , TGI reported as > 100 µM

Entry c1ccc2nc(CCC3CCCCN3)ccc2c1 (stereo not drawn) , TGI reported as > 100 µM

Entry `O=C1NN(c2ccccc2)C(=O)/C1=C/c1ccc(Br)o1` , TGI reported as 20.9 µM

* * *

# Test system: UACC-257 melanoma
# assay_remarks: NCI tumour cell line growth inhibition, 48 h
Assign y whenever TGI does not fall below 20 µM; assign n whenever it does.

Example cases with answers are listed next.
>>> df
                                   compound  label
0  Cc1c(N=Cc2ccc(N(CCC#N)CCC#N)cc2)c(=O)n(-c2ccccc2)n1C      y
1  CCN1CCC(O)(c2ccc(Oc3ccc(C)cc3)cc2)C(C(=O)c2ccc(Oc3ccc(C)cc3)cc2)C1 (centres undefined)      y
2  C=C(C(=O)OC)c1cc2ccccc2n1S(=O)(=O)c1ccccc1      n
3       N#C/C(=C\c1ccc(Br)cc1)n1nnc2ccccc21      n

Say whether COc1cc2c(cc1OCCCC(=O)Nc1cc(C(=O)NCCCN(C)C)n(C)n1)N=CC1CCCN1C2=O (centres undefined) shows TGI of 20 µM or more.
n

Say whether `Cc1ccc(Oc2ccc([N+](=O)[O-])cc2[N+](=O)[O-])c(C)c1` shows TGI of 20 µM or more.
y

Say whether `C=C1C(=O)O[C@H]2[C@H]1CC/C(COC(=O)c1ccccc1)=C\CC[C@@]1(C)O[C@@H]21` shows TGI of 20 µM or more.
n

Say whether `O=C1ON=C2C3CC4CC12CC1(C3)C(=O)ON=C41` shows TGI of 20 µM or more.
y

Say whether `COc1ccc(-c2csc(NC(=O)c3cc(O)c(O)c(O)c3)n2)cc1` shows TGI of 20 µM or more.
y

* * *

# Tested on: M14 melanoma
# assay_remarks: NCI tumour cell line growth inhibition, 48 h
readout_kind: GI50

>>> df
                                   molecule  value_observed
0  COc1cc2c(cc1OCCCCOc1ccc(-c3nc4ccccc4s3)cc1)N=C[C@@H]1CCCN1C2=O          908 nM
1  CC(C)Nc1ncc2cc(Oc3ccc(F)cc3F)c(=O)n(C)c2n1      > 25000 nM
2  OCC(O)C(O)C(O)/C=N/Nc1nc2ccccc2nc1-c1ccccc1 (stereo not given)     > 100000 nM
3  C=C1C(=O)O[C@H]2[C@H]1CC/C(COC(=O)c1ccccc1)=C\CC[C@@]1(C)O[C@@H]21         1320 nM

Next molecule, GI50 to be filled in.
Entry `O=C(COc1cccc(/C=C2\CSc3ccccc3C2=O)c1)c1ccc(Cl)cc1` , GI50 reported as 1630 nM
